# assay-procedure: Plasma and brain pharmacokinetics of oral AEF0117 in mice
# Type: in vivo
# test-context: CD-1 Swiss (mice); Sprague Dawley (rats); Beagle (dogs), mouse, plasma, po; mice, rats and dogs, single per os; read-out: tmax
observation-type: Tmax

## Input Quick one: Tmax of COc1ccc(CO[C@H]2CC[C@@]3(C)C(=CC[C@H]4[C@@H]5CC[C@H](C(C)=O)[C@@]5(C)CC[C@@H]43)C2)cc1 ?
## Output ~3 h

---

# assay-procedure: SAD study, plasma pharmacokinetics
# Type: in vivo
# test-context: human, oral, SAD Day 1, 6 mg, read-out: Cmax, mean (±SD)
observation-type: Cmax (ng/mL)
# value in ng/mL; strip the unit string

## Input Quick one: Cmax of COc1ccc(CO[C@H]2CC[C@@]3(C)C(=CC[C@H]4[C@@H]5CC[C@H](C(C)=O)[C@@]5(C)CC[C@@H]43)C2)cc1 [AEF0117, 3β-(4-methoxybenzyloxy)pregn-5-en-20-one] ?
## Output 38.6
